Reported PBM binding z-score values for the following sequences.
system: RARb:RXRa (NR concentration 270 nM, RXRa partner concentration 90 nM); test: PBM binding z-score (relative to random genomic background probes); higher = stronger binding; sequences stand for … in GC…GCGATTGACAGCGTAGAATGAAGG

SEQUENCE CHAIN	ASSAYED TARGET	PBM binding z-score
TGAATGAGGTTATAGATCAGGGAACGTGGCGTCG	RARb:RXRa (NR concentration 270 nM, RXRa partner concentration 90 nM)	1.34
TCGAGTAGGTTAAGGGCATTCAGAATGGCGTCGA	RARb:RXRa (NR concentration 270 nM, RXRa partner concentration 90 nM)	2.03
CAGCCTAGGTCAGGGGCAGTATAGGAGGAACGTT	RARb:RXRa (NR concentration 270 nM, RXRa partner concentration 90 nM)	3.5
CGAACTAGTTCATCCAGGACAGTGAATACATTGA	RARb:RXRa (NR concentration 270 nM, RXRa partner concentration 90 nM)	1.53
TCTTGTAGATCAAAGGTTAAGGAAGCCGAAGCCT	RARb:RXRa (NR concentration 270 nM, RXRa partner concentration 90 nM)	2.11
GCTGCTAGGTGAGGTTGGTCAGCTAACGGGTACG	RARb:RXRa (NR concentration 270 nM, RXRa partner concentration 90 nM)	0.502
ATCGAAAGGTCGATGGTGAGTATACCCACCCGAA	RARb:RXRa (NR concentration 270 nM, RXRa partner concentration 90 nM)	3.03
CCTACTGCGCCATCAGGTCATTGATATCAACGTT	RARb:RXRa (NR concentration 270 nM, RXRa partner concentration 90 nM)	1.76
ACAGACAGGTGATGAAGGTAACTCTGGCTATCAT	RARb:RXRa (NR concentration 270 nM, RXRa partner concentration 90 nM)	0.114
AGATGTAGGTTACATCCGGGTCATTCAGGCTATG	RARb:RXRa (NR concentration 270 nM, RXRa partner concentration 90 nM)	2.24
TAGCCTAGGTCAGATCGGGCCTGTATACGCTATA	RARb:RXRa (NR concentration 270 nM, RXRa partner concentration 90 nM)	2.8
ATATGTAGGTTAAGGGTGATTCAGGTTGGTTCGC	RARb:RXRa (NR concentration 270 nM, RXRa partner concentration 90 nM)	1.54

----------
test system: LXRa:RXRa (NR concentration 270 nM, RXRa partner concentration 90 nM); assay: PBM binding z-score (relative to random genomic background probes); higher = stronger binding; sequences stand for … in GC…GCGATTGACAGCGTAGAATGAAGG
ENDPOINT: PBM binding z-score

SEQUENCE CHAIN	VALUE OBSERVED
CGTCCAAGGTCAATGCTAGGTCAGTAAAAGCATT	5.2
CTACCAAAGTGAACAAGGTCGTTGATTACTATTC	0.808
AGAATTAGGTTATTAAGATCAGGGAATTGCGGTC	0.607
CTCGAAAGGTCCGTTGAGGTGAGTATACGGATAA	-0.377
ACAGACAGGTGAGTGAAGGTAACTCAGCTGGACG	0.0321
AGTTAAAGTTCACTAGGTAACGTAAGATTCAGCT	4.91
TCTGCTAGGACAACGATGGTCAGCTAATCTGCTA	-0.708
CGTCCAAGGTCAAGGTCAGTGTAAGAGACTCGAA	5.66
CTACCAAGGTGAATAAGGTCGTTGATTACTATTC	1.3
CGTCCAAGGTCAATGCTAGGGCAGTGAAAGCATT	4.8
CCTTACGGGTCACTGACAGTTTATAGCATTTGGA	4.17
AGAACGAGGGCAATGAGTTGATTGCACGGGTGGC	0.157
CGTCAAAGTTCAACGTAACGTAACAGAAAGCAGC	5.59
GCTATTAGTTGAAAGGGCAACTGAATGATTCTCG	0.896
ATATGTAAGTTATCGGGTCATTCAGTTTGCGCAT	2.33
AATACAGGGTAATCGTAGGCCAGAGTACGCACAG	1.34
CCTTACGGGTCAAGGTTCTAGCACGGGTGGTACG	3.35
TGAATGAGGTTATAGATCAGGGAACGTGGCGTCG	1.48
CCTTACGGGTCACTGACAGGTTATACCATTTGGA	4.42
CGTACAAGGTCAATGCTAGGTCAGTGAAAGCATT	6
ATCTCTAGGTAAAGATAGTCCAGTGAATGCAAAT	0.368
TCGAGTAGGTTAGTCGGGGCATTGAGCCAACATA	-0.326
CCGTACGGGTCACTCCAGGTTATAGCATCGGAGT	7.91
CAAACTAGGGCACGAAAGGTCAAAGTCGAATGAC	6.93
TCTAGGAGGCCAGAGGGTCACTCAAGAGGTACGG	0.891
CCTTACGGGTCGCGAGGTTATAGCACGACGAGCG	1.99

----------
Reported PBM binding z-score values for the following sequences.
test system: RARa:RXR (NR concentration 270 nM, RXRa partner concentration 90 nM); assay: PBM binding z-score (relative to random genomic background probes); higher = stronger binding; sequences stand for … in GC…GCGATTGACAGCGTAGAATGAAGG

SEQUENCE CHAIN	ASSAYED TARGET	PBM binding z-score
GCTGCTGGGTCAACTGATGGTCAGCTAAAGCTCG	RARa:RXR (NR concentration 270 nM, RXRa partner concentration 90 nM)	2.61
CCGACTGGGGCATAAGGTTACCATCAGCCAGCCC	RARa:RXR (NR concentration 270 nM, RXRa partner concentration 90 nM)	1.06
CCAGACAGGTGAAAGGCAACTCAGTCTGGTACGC	RARa:RXR (NR concentration 270 nM, RXRa partner concentration 90 nM)	0.0824
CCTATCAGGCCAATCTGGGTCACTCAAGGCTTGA	RARa:RXR (NR concentration 270 nM, RXRa partner concentration 90 nM)	2.62
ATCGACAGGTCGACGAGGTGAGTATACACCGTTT	RARa:RXR (NR concentration 270 nM, RXRa partner concentration 90 nM)	1.54
ATCTCTAGGTAACAAGTTCAGTGACAGAGAGGAC	RARa:RXR (NR concentration 270 nM, RXRa partner concentration 90 nM)	1.11
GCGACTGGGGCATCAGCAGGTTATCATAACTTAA	RARa:RXR (NR concentration 270 nM, RXRa partner concentration 90 nM)	0.458
CGTCAAGGTTCAAGGTAACGTAACAGAAAGCAGC	RARa:RXR (NR concentration 270 nM, RXRa partner concentration 90 nM)	2.3
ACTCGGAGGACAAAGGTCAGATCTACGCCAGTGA	RARa:RXR (NR concentration 270 nM, RXRa partner concentration 90 nM)	4.45
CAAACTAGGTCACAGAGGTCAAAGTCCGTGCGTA	RARa:RXR (NR concentration 270 nM, RXRa partner concentration 90 nM)	7.51
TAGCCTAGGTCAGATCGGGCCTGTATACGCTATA	RARa:RXR (NR concentration 270 nM, RXRa partner concentration 90 nM)	1.22
CCTGCTAGGTCAATGGGCAGCTAAAGCAGCTCGC	RARa:RXR (NR concentration 270 nM, RXRa partner concentration 90 nM)	1.07
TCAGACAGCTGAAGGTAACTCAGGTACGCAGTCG	RARa:RXR (NR concentration 270 nM, RXRa partner concentration 90 nM)	0.392
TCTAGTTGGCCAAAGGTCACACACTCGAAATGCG	RARa:RXR (NR concentration 270 nM, RXRa partner concentration 90 nM)	6.89
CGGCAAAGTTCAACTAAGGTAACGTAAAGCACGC	RARa:RXR (NR concentration 270 nM, RXRa partner concentration 90 nM)	3.93
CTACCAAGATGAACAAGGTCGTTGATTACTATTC	RARa:RXR (NR concentration 270 nM, RXRa partner concentration 90 nM)	1.45
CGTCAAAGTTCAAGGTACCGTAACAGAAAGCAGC	RARa:RXR (NR concentration 270 nM, RXRa partner concentration 90 nM)	3.45
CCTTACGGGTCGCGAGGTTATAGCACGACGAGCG	RARa:RXR (NR concentration 270 nM, RXRa partner concentration 90 nM)	3.62
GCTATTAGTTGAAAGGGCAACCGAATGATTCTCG	RARa:RXR (NR concentration 270 nM, RXRa partner concentration 90 nM)	1.38
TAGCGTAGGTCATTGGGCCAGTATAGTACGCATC	RARa:RXR (NR concentration 270 nM, RXRa partner concentration 90 nM)	2.36
AGAATGAGGTTAAGAGCAGGGAAACAGAATACAT	RARa:RXR (NR concentration 270 nM, RXRa partner concentration 90 nM)	1.69
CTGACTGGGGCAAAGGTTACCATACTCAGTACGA	RARa:RXR (NR concentration 270 nM, RXRa partner concentration 90 nM)	4.17
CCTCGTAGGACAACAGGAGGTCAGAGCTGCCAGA	RARa:RXR (NR concentration 270 nM, RXRa partner concentration 90 nM)	2.37
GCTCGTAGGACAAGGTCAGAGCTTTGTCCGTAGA	RARa:RXR (NR concentration 270 nM, RXRa partner concentration 90 nM)	2.13
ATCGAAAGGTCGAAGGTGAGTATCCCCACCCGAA	RARa:RXR (NR concentration 270 nM, RXRa partner concentration 90 nM)	3.89
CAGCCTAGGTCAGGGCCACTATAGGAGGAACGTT	RARa:RXR (NR concentration 270 nM, RXRa partner concentration 90 nM)	0.936
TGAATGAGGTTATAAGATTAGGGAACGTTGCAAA	RARa:RXR (NR concentration 270 nM, RXRa partner concentration 90 nM)	1.31
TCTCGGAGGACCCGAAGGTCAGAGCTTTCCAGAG	RARa:RXR (NR concentration 270 nM, RXRa partner concentration 90 nM)	1.89
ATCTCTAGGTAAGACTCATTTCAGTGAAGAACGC	RARa:RXR (NR concentration 270 nM, RXRa partner concentration 90 nM)	0.211
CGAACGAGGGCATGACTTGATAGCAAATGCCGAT	RARa:RXR (NR concentration 270 nM, RXRa partner concentration 90 nM)	0.614
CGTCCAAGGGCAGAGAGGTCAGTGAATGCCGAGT	RARa:RXR (NR concentration 270 nM, RXRa partner concentration 90 nM)	2.56
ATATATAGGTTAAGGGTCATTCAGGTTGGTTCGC	RARa:RXR (NR concentration 270 nM, RXRa partner concentration 90 nM)	6.57
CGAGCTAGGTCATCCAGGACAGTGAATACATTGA	RARa:RXR (NR concentration 270 nM, RXRa partner concentration 90 nM)	2.15
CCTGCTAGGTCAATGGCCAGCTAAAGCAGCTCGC	RARa:RXR (NR concentration 270 nM, RXRa partner concentration 90 nM)	1.31
CCGACTGGGGCAAGGTGACCATAACGCACAGCCA	RARa:RXR (NR concentration 270 nM, RXRa partner concentration 90 nM)	-0.0197
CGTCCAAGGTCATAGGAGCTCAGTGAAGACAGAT	RARa:RXR (NR concentration 270 nM, RXRa partner concentration 90 nM)	4.66
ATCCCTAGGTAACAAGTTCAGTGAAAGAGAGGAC	RARa:RXR (NR concentration 270 nM, RXRa partner concentration 90 nM)	0.808
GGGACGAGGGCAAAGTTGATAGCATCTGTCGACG	RARa:RXR (NR concentration 270 nM, RXRa partner concentration 90 nM)	1.48
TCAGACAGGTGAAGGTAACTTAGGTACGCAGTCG	RARa:RXR (NR concentration 270 nM, RXRa partner concentration 90 nM)	1.27
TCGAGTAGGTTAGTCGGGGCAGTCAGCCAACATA	RARa:RXR (NR concentration 270 nM, RXRa partner concentration 90 nM)	0.0728
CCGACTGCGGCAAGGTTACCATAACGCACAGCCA	RARa:RXR (NR concentration 270 nM, RXRa partner concentration 90 nM)	0.946
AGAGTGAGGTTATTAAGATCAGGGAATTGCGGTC	RARa:RXR (NR concentration 270 nM, RXRa partner concentration 90 nM)	1.5
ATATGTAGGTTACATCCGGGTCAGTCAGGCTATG	RARa:RXR (NR concentration 270 nM, RXRa partner concentration 90 nM)	2.42
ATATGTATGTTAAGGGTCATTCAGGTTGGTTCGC	RARa:RXR (NR concentration 270 nM, RXRa partner concentration 90 nM)	4.22
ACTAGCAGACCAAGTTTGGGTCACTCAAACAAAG	RARa:RXR (NR concentration 270 nM, RXRa partner concentration 90 nM)	1.12
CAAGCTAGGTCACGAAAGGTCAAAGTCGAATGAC	RARa:RXR (NR concentration 270 nM, RXRa partner concentration 90 nM)	7.85
TAGCCTAGCTCATTGGGCCAGTATAGTACGCATC	RARa:RXR (NR concentration 270 nM, RXRa partner concentration 90 nM)	-0.451
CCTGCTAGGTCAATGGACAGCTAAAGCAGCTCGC	RARa:RXR (NR concentration 270 nM, RXRa partner concentration 90 nM)	1.2
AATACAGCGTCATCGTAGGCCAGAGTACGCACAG	RARa:RXR (NR concentration 270 nM, RXRa partner concentration 90 nM)	-0.0509
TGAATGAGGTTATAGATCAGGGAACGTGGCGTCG	RARa:RXR (NR concentration 270 nM, RXRa partner concentration 90 nM)	1.58
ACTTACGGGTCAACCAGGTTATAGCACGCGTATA	RARa:RXR (NR concentration 270 nM, RXRa partner concentration 90 nM)	5.34
